- Target of assay: Mu-type opioid receptor (Homo sapiens) + Delta-type opioid receptor (Homo sapiens) (UniProt P35372+P41143)
- Sequence (P35372 whole entry, looked up): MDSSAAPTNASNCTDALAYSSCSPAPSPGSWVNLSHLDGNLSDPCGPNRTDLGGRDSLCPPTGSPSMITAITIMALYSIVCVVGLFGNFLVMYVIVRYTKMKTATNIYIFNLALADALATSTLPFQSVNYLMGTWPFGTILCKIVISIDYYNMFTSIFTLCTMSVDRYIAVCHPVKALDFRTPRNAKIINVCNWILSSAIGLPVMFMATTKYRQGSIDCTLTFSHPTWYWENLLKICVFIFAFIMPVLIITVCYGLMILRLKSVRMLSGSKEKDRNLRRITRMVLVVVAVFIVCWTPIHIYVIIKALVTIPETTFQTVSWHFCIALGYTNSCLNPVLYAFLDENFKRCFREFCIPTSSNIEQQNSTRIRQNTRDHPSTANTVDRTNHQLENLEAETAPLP
- Sequence (P41143 whole entry, looked up): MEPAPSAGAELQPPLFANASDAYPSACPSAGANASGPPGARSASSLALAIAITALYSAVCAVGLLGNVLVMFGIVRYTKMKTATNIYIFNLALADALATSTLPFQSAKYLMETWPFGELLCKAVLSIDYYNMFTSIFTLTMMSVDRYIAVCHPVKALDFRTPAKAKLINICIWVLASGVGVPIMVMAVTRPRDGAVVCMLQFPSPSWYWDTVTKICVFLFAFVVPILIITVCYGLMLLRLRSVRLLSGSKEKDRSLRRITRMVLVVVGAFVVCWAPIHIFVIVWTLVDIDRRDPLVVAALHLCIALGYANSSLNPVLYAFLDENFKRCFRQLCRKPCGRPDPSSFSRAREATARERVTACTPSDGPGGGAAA
- Method notes: OPRM1-OPRD1 heterodimer agonist potency – cell-based, luminescence, counter-screen for MC4R biased agonist project, dose response (AID 602264)
- Experimental conditions: cell-based OPRM1-OPRD1 heterodimerization
The source made the active and inactive calls. The rule behind the calls is not given here.
I'd be grateful if you could share measured EC50 for these entries.

Exercise: Dear colleague, I am looking for the recorded EC50 of the following molecule: Cc1ccc(NC(=O)c2ncn(CCCN3CCN(Cc4cccc5ccccc45)CC3)n2)cc1C
Key: > 92.5 µM (inactive)

Exercise: Dear colleague, I am looking for the recorded EC50 of the following molecule: CC(=O)Nc1cc(-c2cccc(C(=O)NCCN(C)C)c2)cn2c(-c3cccc(C(F)(F)F)c3)cnc12
Key: > 92.5 µM (inactive)

Exercise: Dear colleague, I am looking for the recorded EC50 of the following molecule: NC(CCc1ccccc1)c1csc(Nc2ccc(C(=O)c3ccccc3)cc2)n1 (centres undefined)
Key: > 92.5 µM (inactive)

Exercise: Dear colleague, I am looking for the recorded EC50 of the following molecule: CC(=O)c1cccc(-c2cnc3c(NC=O)cc(-c4ccccc4F)cn23)c1
Key: > 64.6 µM (inactive)

* * *

- Target of assay: Mu-type opioid receptor (Homo sapiens) + Delta-type opioid receptor (Homo sapiens) (UniProt P35372+P41143)
- Method notes: OPRM1-OPRD1 heterodimer agonist potency – cell-based, luminescence, counter-screen for MC4R biased agonist project, dose response (AID 602264)
- Experimental conditions: cell-based OPRM1-OPRD1 heterodimerization
The source made the active and inactive calls. How the calls were made is not given here.
I'd be grateful if you could share measured EC50 for these entries.

Exercise: Dear colleague, I am looking for the recorded EC50 of the following compound: Oc1ccc(N2CCN(c3ncnc4sc(-c5ccccc5)cc34)CC2)cc1
Key: > 92.4 µM (inactive)

Exercise: Dear colleague, I am looking for the recorded EC50 of the following compound: Clc1ccc(Cn2ncc3c(N4CCN(c5ccccc5)CC4)ncnc32)cc1
Key: > 92.3 µM (inactive)

Exercise: Dear colleague, I am looking for the recorded EC50 of the following compound: COc1cccc(-c2sc3ccccc3c2-c2ccc(OCCN(C)C)cc2)c1
Key: > 64.6 µM (inactive)

Exercise: Dear colleague, I am looking for the recorded EC50 of the following compound: COc1cc(NC(=O)Nc2nc(C(N)Cc3ccc(C(F)(F)F)cc3)cs2)cc(OC)c1OC (stereo not drawn)
Key: > 10.3 µM (inactive)

Exercise: Dear colleague, I am looking for the recorded EC50 of the following compound: CCCCCCCCCCOC(=O)Cn1c(COc2cccc(C)c2)[n+](C)c2ccccc21
Key: > 64.6 µM (inactive)

Exercise: Dear colleague, I am looking for the recorded EC50 of the following compound: c1ccc(-c2sc3ccccc3c2-c2ccc(OCCN3CCCC3)cc2)cc1
Key: > 92.5 µM (inactive)

Exercise: Dear colleague, I am looking for the recorded EC50 of the following compound: COc1ccc(/C=N/NC(=O)c2ccc(COc3ccccc3Cl)o2)c(OC)c1C
Key: > 64.6 µM (inactive)

Exercise: Dear colleague, I am looking for the recorded EC50 of the following compound: COc1cc(-c2cc(NC=O)c3ncc(-c4cccc(C(F)(F)F)c4)n3c2)cc(OC)c1OC
Key: > 64.6 µM (inactive)

Exercise: Dear colleague, I am looking for the recorded EC50 of the following compound: Cc1ccc(-c2nnc(-c3ccc(NC(=O)Cc4cccs4)cc3)o2)cc1
Key: > 64.6 µM (inactive)

Exercise: Dear colleague, I am looking for the recorded EC50 of the following compound: Cc1cc(NC(=O)c2cncc(Br)c2)ccc1NC(=O)c1cc2ccccc2o1
Key: > 64.6 µM (inactive)

Exercise: Dear colleague, I am looking for the recorded EC50 of the following compound: CCOC(=O)c1ccc(-c2ccc(/C=C(\C#N)C(=O)NCc3cccs3)o2)cc1
Key: > 64.6 µM (inactive)

Exercise: Dear colleague, I am looking for the recorded EC50 of the following compound: COc1ccc2nc(NC(=O)CSc3nc4cccnc4n3C)sc2c1
Key: > 64.6 µM (inactive)
